Experiment: Quantitative highthroughput screen to assess conditional lethalithy of NOMO1 cells grown in RPMI1640 with dialyzed fetal bovine serum (RPMI+ds) (AID 1963877); note: nearly all actives have a fitted effect of over 30% in size
Settings: NOMO1 in RPMI+dialyzed FBS viability, ATP luminescence, 48 h; series mostly up to 45.8 µM
Results filed as inconclusive are left out. Calls of active or inactive are those of the source. Calls come from the whole dose curve; as a rule, active = well fitted cell-killing curve with a large enough effect; inconclusive = small, poorly fitted or top-dose-only effect; inactive = flat fitted curve, though single readings scatter.
Bench note: report the call from active, inactive

Worked set:
CSc1cccc(Nc2ncc3cc(-c4c(Cl)cccc4Cl)c(=O)n(C)c3n2)c1 | inactive
O=C(O)C(O)Cc1ccc(O)c(O)c1 (stereo not given) | active
COc1ccc2ccc(=O)oc2c1CC=C(C)C | inactive
OC(CN1CCC(Cc2ccc(F)cc2)CC1)c1ccc(Cl)cc1 (stereo not given) | inactive

Kindly review the next compound as well.
Q. Status in this test for C=CCNC1=C2C[C@@H](C)C[C@H](OC)[C@@H](O)[C@@H](C)C=C(C)[C@H](OC(N)=O)[C@@H](OC)C=CC=C(C)C(=O)NC(=CC1=O)C2=O ?
A. active
